Hey, just so you know, these numbers are from paper PMC8296573.

- System: A. baumannii NCTC 13423
- Procedure Details: Antibacterial activity, pre-exposure
- Assay type: cell-based, Acinetobacter baumannii
- Run Conditions: A. baumannii NCTC 13423, pre-exposure, 10 µM, ± SD
- Experimental: The antimicrobial activity was assessed in a similar way for the initial screening and the dose–response evaluation against different bacterial strains. […] The resazurin staining was performed according to the protocol previously optimized with a few modifications.[46] Briefly, the planktonic solution was first transferred into a new 96-well plate and the OD of the planktonic solution was measured using a Varioskan LUX Multimode microplate reader (Thermo Scientific, Vantaa, Finland). […]

Molecule: CCCCCC/C=C/c1ccc(CCC(N)(CO)CO)cc1 [Compound 42]
Average inhibition %, biofilms viability, %: 0.4

Molecule: CCCCCCCCCCc1ccc(CCC(N)(CO)CO)cc1 [Compound 11]
Average inhibition %, biofilms viability, %: 0

Molecule: CCCCCCCCc1ccc2ccc(CC(N)(CO)CO)nc2c1 [Compound 82]
Average inhibition %, biofilms viability, %: 3.9

Molecule: CCCCCCCCc1ccc2nc(CCC(N)(CO)CO)ccc2c1 [Compound 80]
Average inhibition %, biofilms viability, %: 0

Molecule: CCCCCCCCc1ccc2cc(CC(N)(CO)CO)ccc2c1 [Compound 79]
Average inhibition %, biofilms viability, %: 0.3

Molecule: CCCCCCCCc1ccc(CCC(N)(CO)CO)cc1 [fingolimod, Fingolimod]
Average inhibition %, biofilms viability, %: 0.2
